# tested system: human PDE10A (Homo sapiens)
# Construct: Full-length human PDE10A cDNA is amplified using PCR; supernatant of the sonicated lysate after 10,000 g
# Sequence (Q9Y233 1-779 isoform Q9Y233-1): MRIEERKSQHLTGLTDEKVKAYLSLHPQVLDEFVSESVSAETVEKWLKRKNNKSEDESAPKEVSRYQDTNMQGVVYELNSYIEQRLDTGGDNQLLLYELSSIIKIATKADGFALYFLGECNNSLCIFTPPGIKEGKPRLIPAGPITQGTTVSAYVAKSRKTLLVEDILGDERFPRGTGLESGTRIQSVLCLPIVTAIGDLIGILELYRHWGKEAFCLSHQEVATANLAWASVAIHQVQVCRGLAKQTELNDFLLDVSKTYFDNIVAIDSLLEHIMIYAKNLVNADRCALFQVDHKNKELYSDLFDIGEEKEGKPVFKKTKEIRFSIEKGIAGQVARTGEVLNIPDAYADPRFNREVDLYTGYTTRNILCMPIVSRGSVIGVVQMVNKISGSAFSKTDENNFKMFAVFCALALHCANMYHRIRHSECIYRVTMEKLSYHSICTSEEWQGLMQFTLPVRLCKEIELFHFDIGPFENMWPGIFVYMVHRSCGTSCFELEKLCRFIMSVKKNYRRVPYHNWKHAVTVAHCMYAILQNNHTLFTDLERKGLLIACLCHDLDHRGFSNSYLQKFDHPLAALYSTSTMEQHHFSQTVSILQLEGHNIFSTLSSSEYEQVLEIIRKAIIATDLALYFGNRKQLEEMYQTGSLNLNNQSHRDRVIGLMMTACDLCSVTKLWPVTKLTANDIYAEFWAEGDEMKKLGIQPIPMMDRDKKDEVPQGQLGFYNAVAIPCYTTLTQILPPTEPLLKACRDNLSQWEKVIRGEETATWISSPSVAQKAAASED
# test protocol: PDE10A inhibition assay (IMAP fluorescence polarization)
# particulars: hPDE10A enzyme from transfected HEK293 cell lysate, fluorescein-labeled cAMP/cGMP
pIC50: −log10 of the molar value.
Catalogue of molecules with associated pIC50

{"line notation": "C(#Cc1ccc2ccccc2n1)c1ccc(-n2cnnc2-c2ccncc2)cc1", "pIC50": "7.00 to 8.00"}
{"line notation": "Cn1ncc(-c2ccc(C#Cc3ccc4ccccc4n3)cc2)c1-c1ccncc1", "pIC50": "7.00 to 8.00"}
{"line notation": "OCCn1cc(-c2ccncc2)c(-c2ccc(C#Cc3ccc4ccccc4n3)cc2)n1", "pIC50": "≥ 8.00"}
{"line notation": "COCCn1cc(-c2ccncc2)c(-c2ccc(C#Cc3ccc4ccccc4n3)cc2)n1", "pIC50": "≥ 8.00"}
{"line notation": "CCn1cc(-c2ccncc2)c(-c2ccc(C#Cc3ccc4ccccc4n3)nc2)n1", "pIC50": "≥ 8.00"}
{"line notation": "C(#Cc1ccc2ccccc2n1)c1ccc(-n2ncnc2-c2ccncc2)cc1", "pIC50": "7.00 to 8.00"}
{"line notation": "CN(C)CCn1cc(-c2ccncc2)c(-c2ccc(C#Cc3ccc4ccccc4n3)cc2)n1", "pIC50": "≥ 8.00"}
{"line notation": "Cn1cc(-c2ccncc2)c(-c2ccc(C#Cc3ccc4ccccc4n3)cc2F)n1", "pIC50": "≥ 8.00"}
{"line notation": "C(#Cc1ccc2ccccc2n1)c1ccc(-c2c[nH]nc2-c2ccncc2)cc1", "pIC50": "≥ 8.00"}
{"line notation": "COc1ccc(-c2cn(C)nc2-c2ccc(C#Cc3ccc4ccccc4n3)cc2)cc1", "pIC50": "7.00 to 8.00"}
{"line notation": "C(#Cc1ccc2ccccc2n1)c1ccc(-c2ncncc2-c2ccncc2)cc1", "pIC50": "7.00 to 8.00"}
{"line notation": "C(#Cc1ccc2ccccc2n1)c1ccc(-c2n[nH]cc2-c2ccncc2)cc1", "pIC50": "≥ 8.00"}
{"line notation": "Cn1cc(-c2ccncc2)c(-c2ccc(C#Cc3ccc(C(F)(F)F)cn3)cc2)n1", "pIC50": "6.00 to 7.00"}
{"line notation": "Cn1cc(-c2ccncc2)c(-c2ccc(C#Cc3cccc(C(F)(F)F)n3)cc2)n1", "pIC50": "6.00 to 7.00"}
{"line notation": "Cn1cc(-c2ccc(C#Cc3ccc4ccccc4n3)cc2)c(-c2ccncc2)n1", "pIC50": "≥ 8.00"}
{"line notation": "CNCCn1cc(-c2ccncc2)c(-c2ccc(C#Cc3ccc4ccccc4n3)cc2)n1", "pIC50": "≥ 8.00"}
{"line notation": "Cn1cc(-c2ccncc2)c(-c2ccc(C#Cc3ccc4ccccc4n3)cn2)n1", "pIC50": "≥ 8.00"}
{"line notation": "CCn1cc(-c2ccncc2)c(-c2ccc(C#Cc3ccc4ccccc4n3)cc2)n1", "pIC50": "≥ 8.00"}
